A collection of binders and their measured pEC50
# study-system: T1, BMP-2 (UniProt P12643 283-396)
# T1 construct: also called bone morphogenic protein 2
# T1 sequence (P12643 283-396 limits assumed): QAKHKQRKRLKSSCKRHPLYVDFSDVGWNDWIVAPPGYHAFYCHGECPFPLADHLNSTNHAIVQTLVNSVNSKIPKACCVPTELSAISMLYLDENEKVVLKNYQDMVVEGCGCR
# method: relative EC50 of peptide on BMP-2; format not described, data not shown
Ends that are not written are not given here.
pEC50 here: minus log base 10 of the concentration, concentration in moles per litre.

Consider the reported pEC50 for these binders:
- binder: "SSGGVGGWALFETLRGKEVSR (also: biotinylated for plate assay, position not given here, Found by phage display on immobilized GDF-7; also called P12) [BMP binding peptide SEQ ID NO: 6]"
  pEC50: 8.74
- binder: "SSGPREIWDSLVGVVNPGWSR (also: biotinylated, position not given here, Found by phage display on immobilized GDF-7; also called P11) [BMP binding peptide SEQ ID NO: 5]"
  pEC50: 8.70

**Q:** Provide measured pEC50 value, entry: SSVAEWALRSWEGMRVGEASR (also: biotinylated for plate assay, position not given here, Found by phage display on immobilized GDF-7; also called P13) [BMP binding peptide SEQ ID NO: 7]
**A:** 8.96
